These measurements were taken from paper PMC6128713.

tested on: glutamate-induced 45Ca2+ uptake into synaptosomes of rat brain cortex; experiment: Effect on glutamate-induced 45Ca2+ uptake into synaptosomes of rat brain cortex; type: biochemical, Wistar rats; settings: compound 0.1 μM; 200 μM glutamate, 5 min, 37 °C
# reported Percentage 45Ca2+ of Control (Control – 100%); entries follow
Note: a bare number is incomplete; add the unit.

The examples below pair each entry with its known result.
Molecule	Endpoint Value
CN1CCc2c(c3ccccc3n2CCc2n[nH]c(=S)n2C)C1	90.5 ± 5.1%
CN1CCc2c(c3cc(F)ccc3n2CCc2n[nH]c(=S)n2C)C1	78.7 ± 10.3%
COc1ccc2c(c1)c1c(n2CCc2n[nH]c(=S)n2C)CCN(C)C1	57.5 ± 8.3%
CN1CCc2c(c3cc(Cl)ccc3n2CCc2n[nH]c(=S)n2C)C1	95.3 ± 1.0%
Cc1ccc2c(c1)c1c(n2CCc2ccc(C)nc2)CCN(C)C1 [Dimebon, reference compound]	120.5 ± 3.3%

[Q] Using the record for Cc1ccc2c(c1)c1c(n2CCc2n[nH]c(=S)n2C)CCN(C)C1 , report its Percentage 45Ca2+ of Control (Control – 100%).
[A] 85.5 ± 3.9%
